Numbers sourced from patent US20220347096A1.

assay: Plasma CBD profile and PK after IV administration; assay type: in vivo; conditions: female, BALB/C, mouse, in vivo; mice, IV 12 mg/kg
propertyName: AUC(0-inf) (ng·h/mL)

[[record]]
chemicalsmiles = "C=C(C)[C@@H]1CCC(C)=C[C@H]1c1c(O)cc(CCCCC)cc1O"
propertyname = "AUC(0-inf)"
recordedmeasurement = 5020


---

experiment: Plasma CBD profile and PK after IV administration; type: in vivo; conditions: female, BALB/C, mouse, in vivo; mice, IV 12 mg/kg; read-out: AUC0—Tlast
propertyName: AUC (ng·h/mL)

[[record]]
chemicalsmiles = "C=C(C)[C@@H]1CCC(C)=C[C@H]1c1c(O)cc(CCCCC)cc1O"
valueunit = "ng·h/mL"
recordedmeasurement = 5000


---

test: Plasma CBD profile and PK after IV administration; format: in vivo; settings: female, BALB/C, mouse, in vivo; mice, IV 12 mg/kg; read-out: Vz
propertyName: Vd

[[record]]
chemicalsmiles = "C=C(C)[C@@H]1CCC(C)=C[C@H]1c1c(O)cc(CCCCC)cc1O"
recordedmeasurement = "5.79 L/kg"


---

assay: Plasma CBD profile and PK after IV administration; format: in vivo; settings: female, BALB/C, mouse, in vivo; mice, IV 12 mg/kg
propertyName: Cmax

[[record]]
molecule = "C=C(C)[C@@H]1CCC(C)=C[C@H]1c1c(O)cc(CCCCC)cc1O [CBD]"
recordedmeasurement = "8.86 µg/mL"


---

test: Plasma CBD profile and PK after IV administration; assay type: in vivo; conditions: female, BALB/C, mouse, in vivo; mice, IV 12 mg/kg, 4 h; read-out: Plasma CBD, Mean ± SD
propertyName: concentration at 4 h (ng/mL)

[[record]]
chemicalsmiles = "C=C(C)[C@@H]1CCC(C)=C[C@H]1c1c(O)cc(CCCCC)cc1O"
propertyname = "concentration at 4 h"
recordedmeasurement = 35


---

test: Plasma CBD profile and PK after IV administration; type: in vivo; conditions: female, BALB/C, mouse, in vivo; mice, IV 12 mg/kg
propertyName: clearance (mL/min/kg)

[[record]]
molecule = "C=C(C)[C@@H]1CCC(C)=C[C@H]1c1c(O)cc(CCCCC)cc1O [CBD]"
propertyname = "clearance"
recordedmeasurement = 39.8


---

assay: Plasma CBD profile and PK after IV administration; assay type: in vivo; conditions: female, BALB/C, mouse, in vivo; mice, IV 12 mg/kg, 8 h; read-out: Plasma CBD, Mean ± SD
propertyName: concentration at 8 h (ng/mL)

[[record]]
chemicalsmiles = "C=C(C)[C@@H]1CCC(C)=C[C@H]1c1c(O)cc(CCCCC)cc1O"
recordedmeasurement = 9.5


---

test: Plasma CBD profile and PK after IV administration; format: in vivo; conditions: female, BALB/C, mouse, in vivo; mice, IV 12 mg/kg
propertyName: C0 (ng/mL)

[[record]]
chemicalsmiles = "C=C(C)[C@@H]1CCC(C)=C[C@H]1c1c(O)cc(CCCCC)cc1O"
propertyname = "C0"
recordedmeasurement = 9460


---

assay: Plasma CBD profile and PK after IV administration; format: in vivo; conditions: female, BALB/C, mouse, in vivo; mice, IV 12 mg/kg
propertyName: half-life (min)

[[record]]
chemicalsmiles = "C=C(C)[C@@H]1CCC(C)=C[C@H]1c1c(O)cc(CCCCC)cc1O"
recordedmeasurement = 101

